Reported cell number change values for a set of compounds
# test: qHTS Assay for Lipid Storage Modulators in Drosophila S3 Cells;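 as to cell number change: cells counted by Cell Tracker Red CMTPX staining in the red channel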
# testContext: BODIPY lipid droplet fluorescence, 18-24 h, cells fed with added oleic acid; measured here: cell count max response
About 2,100 (0.66%) of roughly 320,000 compounds were called active. Not shown: some 53% with an inconclusive outcome. The full list was thinned out, with actives kept by preference.
Numeric answer only, unit % assumed.

For orientation, consider the following solved cases.
INSERT INTO measurements (compound, assayreadout, numericvalue) VALUES
  ('CC(C)C(=O)Nc1ccccc1-c1nc2ccccc2[nH]c1=O', 'cell number change', -27.6),
  ('CCN(CC)C(=O)CSc1nc(-c2cccs2)cc(-c2cccs2)c1C#N', 'cell number change', -14),
  ('CCc1ccccc1Nc1nn2c(=O)c3ccc(C(=O)NCc4cccs4)cc3nc2s1', 'cell number change', -9.06),
  ('COc1ccccc1Nc1nn2c(=O)c3ccc(C(=O)NCc4cccnc4)cc3nc2s1', 'cell number change', -12.9),
  ('CC12CC(c3ccccc3O1)C(C(=O)N1CCOCC1)C(=O)N2 (stereo unspecified)', 'cell number change', -1.42),
  ('CCN(CC)C(=O)CSc1nc(N)c(C#N)c(-c2cccs2)c1C#N', 'cell number change', -4.19),
  ('CCc1ccc(NC(=O)C(=S)NC2CCCCC2)cc1', 'cell number change', 1.88),
  ('CCN(CC)C(=O)CSc1nc(C)cc(-c2cccs2)c1C#N', 'cell number change', -17.5),
  ('CC1(C)OC(=O)CC1C(=O)NCc1ccccc1 (stereo unspecified)', 'cell number change', 7.5),
  ('CC12CC(c3ccccc3O1)C(C(=O)NCc1ccccc1)C(=O)N2 (stereo unspecified)', 'cell number change', 13.7);

# context switch: different compound, same cell number change
Quick note, cell number change for `O=C(CCS(=O)(=O)c1ccccc1)Nc1nc2cc3c(cc2s1)OCO3` landed at -2.46

* * *

# test: qHTS Assay for Lipid Storage Modulators in Drosophila S3 Cells;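 as to cell number change: cells counted by Cell Tracker Red CMTPX staining in the red channel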
# testContext: BODIPY lipid droplet fluorescence, 18-24 h, cells fed with added oleic acid; measured here: cell count max response
The whole screen tested about 320,000 compounds, of which about 2,100 (0.66%) were called active. About 53% were inconclusive and are not listed. What follows is part of a selection rich in actives, with near analogues and random picks from the rest.
assayReadout: cell number change

For orientation, consider the following solved cases.
INSERT INTO measurements (molecule, result) VALUES
  ('Cc1c(NC(=O)COc2cccc(F)c2)c(=O)n(-c2ccccc2)n1C', '-5.04%'),
  ('O=C(O)CN(c1ccccc1)C1SC(=O)NC1=O (stereo not given)', '-8.43%'),
  ('CC(=O)Oc1ccc(C(=O)Nc2ccc(S(=O)(=O)N3CCOCC3)cc2)cc1', '-28%'),
  ('O=C1c2cccc3c(N4CCCCC4)ccc(c23)C(=O)N1c1ccccn1', '12.6%'),
  ('CC1(C)C2CC[C@]1(C)C(=O)N(CCCCN1CCN(c3ccccn3)CC1)C2=O', '15.1%'),
  ('Cc1ccc(-c2cc(C(F)(F)F)n3ncc(C(=O)O)c3n2)cc1', '-10.1%'),
  ('O=C1[C@@H]2Cc3c([nH]c4ccccc34)C(c3ccc([N+](=O)[O-])cc3)N2C(=O)CN1C1CC1 (stereo not given in full)', '5.54%'),
  ('Cc1cccc(N(CC(N)=O)C2SC(=O)NC2=O)c1 (stereo not given)', '8.77%');

Quick note, cell number change for `CC(=O)Nc1ccc(S(=O)(=O)N2CCCC2)cc1` landed at 12.4%

Quick note, cell number change for `Cn1c(Cn2c(=O)sc3ccccc32)nnc1SCC(N)=O` landed at 4.82%

Quick note, cell number change for `CCN(CC)c1nc(N)nc(NS(=O)(=O)c2ccc(Cl)cc2)n1` landed at 7.29%

Quick note, cell number change for OCCC1CN(Cc2nc3c(s2)CCCC3)CCN1Cc1ccccc1 (stereo not given) landed at 17.4%

Quick note, cell number change for `Clc1ccc(N2CCN(c3cnc4ccccc4n3)CC2)cc1` landed at -5.19%

* * *

# test: qHTS Assay for Lipid Storage Modulators in Drosophila S3 Cells;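 as to cell number change: cells counted by Cell Tracker Red CMTPX staining in the red channel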
# testContext: BODIPY lipid droplet fluorescence, 18-24 h, cells fed with added oleic acid; measured here: cell count max response
In all, about 320,000 compounds went through this assay and about 2,100 (0.66%) were called active. About 53% were inconclusive and are not listed. This is one part of a sample in which actives are shown more often than they occur.
assayReadout: cell number change (%)
Numeric answer only, unit % assumed.

For orientation, consider the following solved cases.
INSERT INTO assay_data (molecule, assayreadout, numericvalue) VALUES
  ('Cc1ccc(NC(=O)CN2C(=O)CSC2=O)cc1', 'cell number change', -1.37),
  ('Cc1ccccc1CN(C)C(C)C(=O)NCc1ccccc1 (centres undefined)', 'cell number change', 16.8),
  ('Cc1c(N=Cc2ccco2)c(=O)n(-c2ccccc2)n1C', 'cell number change', 8.07),
  ('CCNC(=O)CSc1nc(-c2ccc(F)cc2)cs1', 'cell number change', 6.04),
  ('O=C(O)c1ccc(-n2nnnc2SCc2ccccc2)cc1', 'cell number change', 17.8);

Quick note, cell number change for CC(NC(=O)c1ccco1)c1nc(-c2ccc(C(C)(C)C)cc2)no1 (centres undefined) landed at -0.87

Quick note, cell number change for CC(=O)N1CCN(CCN=CC2=C(O)CC(c3cccs3)CC2=O)CC1 (centres undefined) landed at -26.6

Quick note, cell number change for `Cc1cc([N+](=O)[O-])nn1CCC(=O)Nc1nccs1` landed at 0.24

Quick note, cell number change for `Cc1cc(NC2CCCC2)n2nc(C)c(-c3ccccc3)c2n1` landed at -2.08

Quick note, cell number change for `CCCCOC(=O)Nc1nnc(COc2ccccc2)s1` landed at -19.4

Quick note, cell number change for CCCC(C(=O)NCCC(C)C)N(Cc1ccc(F)cc1)C(=O)c1snc(C(N)=O)c1N (centres undefined) landed at -7.77

* * *

# test: qHTS Assay for Lipid Storage Modulators in Drosophila S3 Cells;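 as to cell number change: cells counted by Cell Tracker Red CMTPX staining in the red channel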
# testContext: BODIPY lipid droplet fluorescence, 18-24 h, cells fed with added oleic acid; measured here: cell count max response
In all, about 320,000 compounds went through this assay and about 2,100 (0.66%) were called active. Inconclusive results (about 53%) are left out. Only a selection was taken, and actives are over-represented in it overall.
assayReadout: cell number change

For orientation, consider the following solved cases.
INSERT INTO measurements (molecule, assayreadout, result) VALUES
  ('Cc1ccc2nc(SCC(=O)Nc3cc(C)on3)nc(=O)n2c1', 'cell number change', '23.9%'),
  ('CCc1ccc(OCCn2ccnc2)cc1', 'cell number change', '-22.2%'),
  ('CC(C(=O)Nc1ccc(F)c(F)c1F)N(C)Cc1cccs1 (stereo unspecified)', 'cell number change', '25.5%');

Quick note, cell number change for `COc1ccc(OCCCn2ccnc2)cc1` landed at -3.82%

Quick note, cell number change for `CCc1ccc(OCCCCCn2ccnc2)cc1` landed at -11.6%

Quick note, cell number change for `COc1ccccc1NC(=O)C(=O)c1cn(CC(=O)N2CCCC2)c2ccccc12` landed at 8.26%

Quick note, cell number change for `CN1CCN(C(=O)C(=O)c2cn(CC(=O)N3CCCC3)c3ccccc23)CC1` landed at -8.67%

Quick note, cell number change for `O=C(CCC(=O)c1ccc(F)cc1)Nc1cccc(C(F)(F)F)c1` landed at -4.38%

Quick note, cell number change for `COc1ccccc1N1CCN(C(=O)C(=O)c2cn(CC(=O)N3CCCCCC3)c3ccccc23)CC1` landed at -23.8%

Quick note, cell number change for `Cc1ccc2nc(SCC(=O)Nc3ccc(Br)cc3)nc(=O)n2c1` landed at -15.9%

Quick note, cell number change for `O=C(CCCCCNC(=O)N1CCn2c1nc1ccccc12)NCc1ccccc1` landed at 11.3%

* * *

# test: qHTS Assay for Lipid Storage Modulators in Drosophila S3 Cells
# testContext: BODIPY lipid droplet fluorescence, 18-24 h, cells fed with added oleic acid; series mostly up to 46.1 µM
The campaign covered roughly 320,000 compounds. About 2,100 (0.66%) were called active. Another 53% or so got no clear call; they are omitted. Calls come from the whole dose curve; as a rule, active = well fitted inhibition curve with a large enough effect in the signal ratio, with a control signal flat (not every such curve was filed as active); inconclusive = small, poorly fitted or top-dose-only effect, or effect the other way, or a change in a side signal; inactive = flat fitted curve, though single readings scatter; the % refers to the signal ratio. For the sample, actives were picked, then their nearest neighbours and some compounds at random.
Output constraint: value belongs to active, inactive

INSERT INTO assay_data (compound, classlabel) VALUES
  ('Cc1cccc(C)c1NC(=O)CN(C)C(=O)/C=C/c1cccs1', 'inactive'),
  ('Cn1cccc2[nH]c(=O)nc1-2', 'inactive'),
  ('CCn1ccnc1CN1CCC(n2nccc2NC(=O)CCc2ccccc2)CC1', 'inactive'),
  ('COC(=O)c1sccc1NS(=O)(=O)c1ccccc1[N+](=O)[O-]', 'inactive'),
  ('COc1ccc(/C=C2/Sc3ccc(C(=O)N4CCc5ccccc5C4)cc3NC2=O)cc1', 'inactive');

[ask] // return assay outcome for CCOC(=O)CNC(=O)N1CCCC(C(=O)c2cc(C)c(OC)c(C)c2)C1 (centres undefined)
[reply] inactive

[ask] // return assay outcome for `CC(=O)Nc1ccc(S(=O)(=O)NC2CC2)cc1`
[reply] inactive

[ask] // return assay outcome for `Cc1cccc(-n2cc(-c3ccccc3)c3c(N4CCOCC4)ncnc32)c1`
[reply] inactive

[ask] // return assay outcome for `CC(C)(C)c1ccc(C(=O)N/N=C2\C3CN4CCN(C3)CC2(c2ccccc2)C4)cc1`
[reply] inactive

[ask] // return assay outcome for `Cc1ccc(C)c(OCCC(=O)Nc2cccc(S(=O)(=O)N3CCCCC3)c2)c1`
[reply] active
